test system: Escherichia coli TOP10; assay: shrunken log2 fold change of peptide-encoding DNA abundance (4.5 h post-induction vs induction); higher = less antimicrobial activity (less host growth inhibition); settings: time post-induction: 4.5 h; library: site-saturation at positions 5, 18, 19, 20
shrunken log2 fold change for assorted sequences

MACROMOLECULE_SEQUENCE	shrunken log2 fold change
RRIRWRPPRLPRPRPRPCEPPRP	-0.27
RRIRNRPPRLPRPRPRPSCDPRP	-0.179
RRIRQRPPRLPRPRPRPQYVPRP	0.0318
RRIRKRPPRLPRPRPRPADWPRP	0.666
RRIRFRPPRLPRPRPRPIIGPRP	-0.024
RRIRSRPPRLPRPRPRPNEQPRP	0.0903
RRIRSRPPRLPRPRPRPDQCPRP	-0.209
RRIRYRPPRLPRPRPRPSWHPRP	-1.12
RRIRGRPPRLPRPRPRPYHGPRP	-0.459

---

test system: Escherichia coli TOP10; assay: shrunken log2 fold change of peptide-encoding DNA abundance (4.5 h post-induction vs induction); higher = less antimicrobial activity (less host growth inhibition); conditions: time post-induction: 4.5 h; library: site-saturation at positions 5, 18, 19, 20
Could you please classify the records by shrunken log2 fold change using these ranges: low (below -0.3), middle (-0.3 to below -0.03), high (-0.03 or more)

MACROMOLECULE_SEQUENCE	CLASSIFICATION
RRIRIRPPRLPRPRPRPLIEPRP	low
RRIRARPPRLPRPRPRPFMAPRP	middle
RRIRIRPPRLPRPRPRPFVHPRP	low
RRIRHRPPRLPRPRPRPRWWPRP	high
RRIRWRPPRLPRPRPRPHWHPRP	middle
RRIRERPPRLPRPRPRPLFGPRP	middle
RRIRGRPPRLPRPRPRPCIGPRP	middle
RRIRKRPPRLPRPRPRPDPIPRP	high
RRIRGRPPRLPRPRPRPAFGPRP	high
RRIRCRPPRLPRPRPRPGMHPRP	middle
RRIRKRPPRLPRPRPRPMVHPRP	middle
RRIRQRPPRLPRPRPRPNRMPRP	high
RRIRFRPPRLPRPRPRPYAEPRP	low
RRIRYRPPRLPRPRPRPWVVPRP	middle

---

tested on: Escherichia coli TOP10; assay: shrunken log2 fold change of peptide-encoding DNA abundance (4.5 h post-induction vs induction); higher = less antimicrobial activity (less host growth inhibition); details: time post-induction: 4.5 h; library: site-saturation at positions 5, 18, 19, 20;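 also: peptides expressed intracellularly from a pBAD plasmid library in pooled LB shake-flask culture, induced with 0.3% L-arabinose, DNA abundance read by NGS, three biological replicates, DESeq2 with apeglm shrinkage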
Please mark label 1 if the recorded shrunken log2 fold change is equal to or greater than -0.2, and label 0 if it falls below.

MACROMOLECULE_SEQUENCE	CLASSIFICATION
RRIRHRPPRLPRPRPRPFWCPRP	label 0
RRIRPRPPRLPRPRPRPLNHPRP	label 0
RRIRYRPPRLPRPRPRPPGMPRP	label 1
RRIRMRPPRLPRPRPRPRRLPRP	label 1
RRIRMRPPRLPRPRPRPGPMPRP	label 1
RRIRQRPPRLPRPRPRPKYCPRP	label 1
RRIRFRPPRLPRPRPRPACPPRP	label 1
RRIRGRPPRLPRPRPRPVGIPRP	label 1
RRIRVRPPRLPRPRPRPECEPRP	label 1
RRIRNRPPRLPRPRPRPSWAPRP	label 0
RRIRMRPPRLPRPRPRPCIHPRP	label 1
RRIRQRPPRLPRPRPRPERQPRP	label 1
RRIRIRPPRLPRPRPRPHYYPRP	label 0
RRIRDRPPRLPRPRPRPILLPRP	label 0
RRIRYRPPRLPRPRPRPKHMPRP	label 0
RRIRERPPRLPRPRPRPVNDPRP	label 1
RRIRHRPPRLPRPRPRPKNIPRP	label 0
RRIRTRPPRLPRPRPRPDCWPRP	label 1
RRIRRRPPRLPRPRPRPRIDPRP	label 1
RRIRMRPPRLPRPRPRPEMSPRP	label 1
RRIRVRPPRLPRPRPRPKGGPRP	label 1
RRIRQRPPRLPRPRPRPFEHPRP	label 1
RRIRRRPPRLPRPRPRPWREPRP	label 1
RRIRSRPPRLPRPRPRPFWSPRP	label 1
RRIRMRPPRLPRPRPRPEVPPRP	label 1
RRIRGRPPRLPRPRPRPWRGPRP	label 1
RRIRLRPPRLPRPRPRPCPAPRP	label 1
RRIRFRPPRLPRPRPRPTQVPRP	label 0
RRIRCRPPRLPRPRPRPFTHPRP	label 0
RRIRYRPPRLPRPRPRPLLSPRP	label 1
RRIRKRPPRLPRPRPRPDSRPRP	label 1
RRIRERPPRLPRPRPRPVMTPRP	label 0
RRIRSRPPRLPRPRPRPEYLPRP	label 1
RRIRCRPPRLPRPRPRPDAPPRP	label 1
RRIRTRPPRLPRPRPRPSLFPRP	label 0
RRIRFRPPRLPRPRPRPKMCPRP	label 0
RRIRLRPPRLPRPRPRPHTSPRP	label 1
RRIRIRPPRLPRPRPRPPHRPRP	label 1
RRIRERPPRLPRPRPRPYLLPRP	label 1
RRIRIRPPRLPRPRPRPVYQPRP	label 0
RRIRCRPPRLPRPRPRPTLFPRP	label 1
RRIRERPPRLPRPRPRPPTVPRP	label 1
RRIRYRPPRLPRPRPRPRHPPRP	label 0
RRIRFRPPRLPRPRPRPDHKPRP	label 0
RRIRHRPPRLPRPRPRPQFWPRP	label 1
RRIRQRPPRLPRPRPRPQGSPRP	label 1
RRIRWRPPRLPRPRPRPEQYPRP	label 1
RRIRTRPPRLPRPRPRPAWKPRP	label 1
RRIRKRPPRLPRPRPRPESNPRP	label 1
RRIRPRPPRLPRPRPRPLVIPRP	label 0
RRIRWRPPRLPRPRPRPIHHPRP	label 0
RRIRNRPPRLPRPRPRPLTMPRP	label 0
RRIRYRPPRLPRPRPRPFCYPRP	label 0
RRIRSRPPRLPRPRPRPRPEPRP	label 1
RRIRLRPPRLPRPRPRPECKPRP	label 1
RRIRHRPPRLPRPRPRPEAAPRP	label 1
RRIRSRPPRLPRPRPRPGCYPRP	label 1
RRIRLRPPRLPRPRPRPHMIPRP	label 0
RRIRYRPPRLPRPRPRPCNHPRP	label 0
RRIRLRPPRLPRPRPRPPSPPRP	label 1
RRIRDRPPRLPRPRPRPNTLPRP	label 0
